Origin of values: patent US12187653B2

Measured % binding to cement, listed per entry for reference.
test: Cement binding: percent of species absorbed to cement, by ion chromatography; details: Example 6, procedure of Example 1B
Kindly answer with a numeric value in %, unit omitted.

>  <molecule>
OB(O)O

>  <% binding to cement / %>
100

$$$$

% binding to cement for O=C(O)/C=C(\CC(=O)O)C(=O)O [trans-Aconitic Acid] ?
5

// lookup % binding to cement for O=C(O)CN(CCN(CC(=O)O)CC(=O)O)CC(=O)O
36

Need % binding to cement of NCCCCCCCCCCCC(=O)O , thanks.
90

Can you share its % binding to cement? I mean this molecule: O=C[C@H](O)[C@@H](O)[C@H](O)[C@H](O)CO [D-(+)-Glucose]
100
